Below is a list of entries, each paired with its recorded growth inhibition value.
- protocol.text: NCI Yeast Anticancer Drug Screen. Data for the cln2 rad14 strain (AID 165);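 also: 0% = growth equal to vehicle treated cultures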
- experimental.setup: S. cerevisiae cln2 rad14 strain, at 50.0 µM, active compounds read high
About 79,000 compounds went through this panel and 15% of them were active in at least one assay; those are over-represented in the sample as a whole.
metric.name: growth inhibition (%)

>>> recorded_measurement("CC1=CC(=O)/C(=C/n2c(=S)sc3ccccc32)C(=O)O1")
23
>>> recorded_measurement("CC(O)C1CC1 (centres undefined)")
1.65
>>> recorded_measurement("[N-]=[N+]=NS(=O)(=O)CCc1ccc(Cl)cc1")
-55
>>> recorded_measurement("COc1ccc(NC2=CC(=O)c3ccccc3C2=O)cc1")
-35
>>> recorded_measurement("COC(=S)SCSC(=S)OC")
-14.9
>>> recorded_measurement("Nc1cccc(CC(N)C(=O)O)c1 (centres undefined)")
-44.1
>>> recorded_measurement("CC1(C)C2CCC(CCOC(=O)COc3ccc(Cl)cc3Cl)C1C2 (centres undefined)")
-34.8
>>> recorded_measurement("CC(C)CCC1(C2CCOCC2)NC(=O)NC1=O (centres undefined)")
-26.6
>>> recorded_measurement("NC(=O)c1ccc(S(=O)(=NS(=O)(=O)c2ccccc2)c2ccc(C(N)=O)cc2)cc1")
-62.8

* * *

- protocol.text: NCI Yeast Anticancer Drug Screen. Data for the rad50 strain (AID 155);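 also: 0% = growth of vehicle-only cultures of the same strain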
- experimental.setup: S. cerevisiae rad50 strain growth inhibition; at 50.0 µM; active compounds read high
The panel holds about 79,000 compounds, 15% with a hit somewhere; the sample as a whole holds those more often. Where a SMILES comes first, the peptide text is derived from it. [ ]: non-standard residue; d: D form. The star is where a group is joined. ξ: configuration not given here. X15 = COc1ccc(C(N*)c2ccc(OC)cc2)cc1; NMeF = CN[C@@H](Cc1ccccc1)C(=O)O; NMeD = CN[C@@H](CC(=O)O)C(=O)O; NMeV = CN[C@H](C(=O)O)C(C)C; ξNMeV = CNC(C(=O)O)C(C)C; Boc = CC(C)(C)OC(=O)*; ξNMeA = CNC(C)C(=O)O; ξV = CC(C)C(N)C(=O)O
metric.name: growth inhibition (%)

>>> recorded_measurement("CC(=O)N1c2ccccc2S(=O)(=O)c2ccccc21")
1.6
>>> recorded_measurement("COc1ccc(C2CC(=O)C(C(=O)OC3CCCCC3)C2c2ccc(OC)cc2)cc1 (stereo not given)")
13.9
>>> recorded_measurement("Clc1ccc(-c2cc3ccccc3[nH]2)cc1")
23.9
>>> recorded_measurement("COc1ccc(C(NC(=O)C[C@@H](C(=O)N(C)C(C)C(=O)O)N(C)C(=O)[C@@H]2CCCN2C(=O)[C@H](C(C)C)N(C)C(=O)C(C(C)C)N(C)C(=O)[C@H](Cc2ccccc2)N(C)C(=O)C(NC(=O)OC(C)(C)C)C(C)C)c2ccc(OC)cc2)cc1 (stereo not given in full) (Boc-[ξV][NMeF][ξNMeV][NMeV]P[NMeD](X15)[ξNMeA]-OH)")
-30.5
>>> recorded_measurement("Cc1c(Br)cc(Br)c(O)c1Br")
37.3
>>> recorded_measurement("O=C(CCCn1cnc([N+](=O)[O-])n1)NCCn1ccnc1[N+](=O)[O-]")
-3.1
>>> recorded_measurement("O=C(O)c1ccccc1SC(Sc1ccccc1C(=O)O)c1ccc(Cl)cc1")
4.8
>>> recorded_measurement("Oc1ccc(-c2cc(-c3c(O)cc(O)cc3O)on2)cc1")
4.25
>>> recorded_measurement("CC(=O)Nc1cc(C(C)=O)ccc1O")
0.95
>>> recorded_measurement("CCOC(=O)CN1C(=O)CCC1=O")
-6.6

* * *

- protocol.text: NCI Yeast Anticancer Drug Screen. Data for the mlh1 rad18 strain (AID 175)
- experimental.setup: S. cerevisiae mlh1 rad18 strain growth inhibition; at 50.0 µM; active compounds read high
This is part of a sample that, as a whole, favours compounds with a hit. Of some 79,000 tested, about 15% had one in any assay.
metric.name: growth inhibition (%)

>>> recorded_measurement("N/N=C1/C=Cc2cccc3cccc1c23")
38.4
>>> recorded_measurement("Cc1nn2c(=O)n(-c3cccc(-n4nnc5c(-c6ccccc6)c(C)nn5c4=O)c3C)nnc2c1-c1ccccc1")
43.9
>>> recorded_measurement("CCOC(=O)c1c(/C=N\\Nc2ccccc2)nc2ccccc2c1-c1ccccc1")
-7.4
>>> recorded_measurement("O=C(Nc1ccc([N+](=O)[O-])cc1Cl)OCCc1ccccn1")
20.5
>>> recorded_measurement("Cc1[nH]nc(C(=O)O)c1N")
-7.2
>>> recorded_measurement("OCC(O)COc1cccc2cccnc12 (configuration not stated)")
8.3
>>> recorded_measurement("C[N+](C)(C)Cc1cc2ccccc2c2ccccc12")
20.1
>>> recorded_measurement("CCCCCC/C=N\\OC(N)=O")
11.8
>>> recorded_measurement("N#CNC1=C(C#N)C(c2ccccc2)CC(=O)N1 (configuration not stated)")
10.2
>>> recorded_measurement("COC(=O)N/N=C(/c1nc2ccc([N+](=O)[O-])cc2[nH]c1=O)C(O)c1ccc(OC)c(OC)c1 (configuration not stated)")
6.2
>>> recorded_measurement("CCCCCCCCCCCC(=O)OCC1OC(n2cc(F)c(=O)[nH]c2=O)C(NC(=O)OCc2ccccc2)C(O)C1O (configuration not stated)")
24.8
>>> recorded_measurement("CCC(=O)Oc1ccc(C(OC(=O)CC)OC(=O)CC)cc1OC")
8.05
>>> recorded_measurement("O=C1NCC(c2ccccc2)(c2ccccc2)O1")
19.4
>>> recorded_measurement("CC1(C)CC(=O)C(/C(=N/NC(=S)NN)C(=O)Nc2nc3ccc([N+](=O)[O-])cc3s2)C(=O)C1")
16.4
>>> recorded_measurement("C/C(CC(C)C)=N\\NC(=O)Nc1ccccc1Cl")
6.35
>>> recorded_measurement("CC(C)=C1C(=O)C[C@@]2(C)C[C@H]3OC3(C)CC/C=C(/C)CCC12 (some centres not stated)")
-62.5
>>> recorded_measurement("CN1C/C(=C\\c2ccc(N(C)C)cc2)C(=O)/C(=C/c2ccc(N(C)C)cc2)C1")
-9.85
>>> recorded_measurement("CCOc1ccc2nc(NC(=O)CC(C)=O)sc2c1")
7.35
>>> recorded_measurement("CCOC(=O)/C(O)=C(/C=NC(=S)c1ccncc1)C(=O)OCC")
-31
>>> recorded_measurement("CC(=O)C(=C(c1ccccc1)c1ccccc1)c1ccccc1")
7.6
>>> recorded_measurement("CC(=O)Oc1cccc2cc3cc(C)cc(OC(C)=O)c3c(OC(C)=O)c12")
14.7
>>> recorded_measurement("CCO/C=N/n1c(C(=O)NCCCOC)nc2ccccc2c1=O")
1.75
>>> recorded_measurement("CN(C)c1ccc(C=C2/C(=N\\O)c3ccccc3/C2=N/O)cc1")
48.1
>>> recorded_measurement("O=NN(CCCl)C(=S)NC1CCCCC1")
47.8
>>> recorded_measurement("O=[N+]([O-])c1cccc(/C=[N+](\\[O-])c2ccccc2)c1")
0.6
>>> recorded_measurement("Clc1ccc(-c2oc(-c3ccc(Cl)cc3)c3ccccc23)cc1")
-23.6
>>> recorded_measurement("CC(C)C1NC(=O)NC1=O (configuration not stated)")
-4.4

* * *

- protocol.text: NCI Yeast Anticancer Drug Screen. Data for the bub3 strain (AID 167)
- experimental.setup: S. cerevisiae bub3 mutant strain, at 50.0 µM
- Protocol: Growth inhibition of yeast strains with defined genetic alterations is measured as a screen for potential anti-cancer activity. Selected strains with alterations in DNA damage repair or cell cycle control were exposed to compounds and growth inhibition was measured relative to vehicle treated controls. The strain used in this assay is bub3
Compounds without any hit were thinned out: in the full panel of roughly 79,000, 15% have a hit. Active and inactive are the calls of the source. Cut-off read from the data, not from the text of the source: active = growth inhibition above about 70%; inactive = the rest.
Possible outcomes: active, inactive

>>> assigned_category("O=C(O)c1cc(Cl)ccc1-c1ccc(Cl)cc1C(=O)Nc1ccc2c(c1)Cc1ccccc1-2")
"active"
>>> assigned_category("CC1=C(C(=O)O)C(C)CC(=O)N1 (stereo unspecified)")
"inactive"
>>> assigned_category("CCCC(=O)Nc1ccc2c(ccn2COC)c1")
"inactive"
>>> assigned_category("CC(=O)c1sc(-c2nc(C)c(C(=O)/C=C\\c3ccc(/C=C\\C(=O)c4sc(-c5nc(C)c(C(C)=O)s5)nc4C)cc3)s2)nc1C")
"inactive"
>>> assigned_category("O=C(c1ccccc1)c1cccc(C(=O)c2ccccc2)n1")
"inactive"
>>> assigned_category("OC(c1ccccc1)C(Cl)c1ccccc1 (stereo unspecified)")
"inactive"
>>> assigned_category("CC(/C=N/NC1=NCCCCN1)=N\\NC1=NCCCCN1")
"inactive"
>>> assigned_category("O=C(NCCCC1NC(=O)/C(=C(O)/C=C/C=C/c2ccccc2)C1=O)OCc1ccccc1 (stereo unspecified)")
"inactive"
>>> assigned_category("O=[N+]([O-])c1ccccc1S(=O)(=O)N(CCCCCN(S(=O)(=O)c1ccccc1[N+](=O)[O-])S(=O)(=O)c1ccccc1[N+](=O)[O-])S(=O)(=O)c1ccccc1[N+](=O)[O-]")
"inactive"
>>> assigned_category("O=C(N/N=C1\\C(=O)N(c2nccs2)C(=O)C(=O)C1c1nc2ccccc2s1)c1ccccc1O (stereo unspecified)")
"inactive"
>>> assigned_category("c1ccc(C(=C2CCC2)c2c3ccccc3cc3ccccc23)cc1")
"inactive"
>>> assigned_category("Cc1ccc2nc(N(C)C)nc-2c2[nH]c(=O)[nH]c12")
"inactive"
>>> assigned_category("CSc1nc(SC)c2cnn(C3OC(CO)C(O)C3O)c2n1 (stereo unspecified)")
"inactive"
>>> assigned_category("C=C(Cl)C(=C)CCC(Cl)C(C)C (stereo unspecified)")
"inactive"
>>> assigned_category("Cc1cc(Cl)c(=O)n(-c2ccccc2)n1")
"inactive"
>>> assigned_category("Cc1ccccc1SCC(N)=O")
"inactive"
>>> assigned_category("O=C(Nc1ccccn1)c1ccccc1")
"inactive"
>>> assigned_category("NC(=O)C(Br)Cc1cccc(Cl)c1 (stereo unspecified)")
"inactive"
>>> assigned_category("NC(=O)c1ccc(S(=O)(=NS(=O)(=O)c2ccccc2)c2ccc(C(N)=O)cc2)cc1")
"inactive"
>>> assigned_category("CCN(CC)CCCC(C)NC(=O)c1ccc2c(c1O)C(=O)c1ccccc1C2=O (stereo unspecified)")
"inactive"
>>> assigned_category("COc1ccc2c(c1)C1(C)CCC(=O)C(C)=C1CC2 (stereo unspecified)")
"inactive"
>>> assigned_category("CC(C)(C)c1cc2c(OP(c3ccccc3)c3ccccc3)c(c1)Cc1cc(C(C)(C)C)cc(c1OP(c1ccccc1)c1ccccc1)Cc1cc(C(C)(C)C)cc(c1OP(c1ccccc1)c1ccccc1)Cc1cc(C(C)(C)C)cc(c1OP(c1ccccc1)c1ccccc1)C2")
"inactive"
>>> assigned_category("CCCCCCCCCC1OCC(COCC)O1 (stereo unspecified)")
"inactive"
>>> assigned_category("CC(=O)OCC(=O)O[C@@H]1[C@H]2[C@@H](OC(=O)c3ccccc3)[C@@H](C)C[C@]2(O)[C@H](OC(C)=O)[C@@]2(C)C(OC(C)=O)[C@]1(OC(C)=O)C[C@H]1C(=O)C(C)(C)C[C@@H]12 (stereo partly specified)")
"inactive"
>>> assigned_category("O=C(CCl)NC(=O)NC1=C(Cl)C(=O)c2ccccc2C1=O")
"active"
>>> assigned_category("COC(=O)C1(OC)C(=O)NC2=C1C(=O)c1ccccc1C2=O (stereo unspecified)")
"inactive"
